Test: chemical genetic growth profiling, strain panel (AID 1159580);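 note: tested at 20 µM; growth read once vehicle control cultures reached saturation at 30 °C; lower values mean less growth of the strain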
Settings: S. cerevisiae deletion strains, growth OD, locus YOL012C, strain htz1
Among all 5,500 compounds or so, about 2,000 (36%) were called active. Roughly 18% stayed inconclusive and do not appear here. Cut-off read from the data, not from the text of the source: active = normalized growth mostly below about 0.91 (no sharp cut-off); inconclusive = no clear call, values can overlap the other calls; inactive = mostly above about 0.92. The list shows a part of the results.
Choose one outcome from this list and give only that: active, inactive

For orientation, consider the following solved cases.
Exam item: # outcome recorded in this test, key = CC1=C(CC(=O)O)c2cc(F)ccc2/C1=C\c1ccc(S(C)=O)cc1 (configuration not stated)
Marked response: inactive

Exam item: # outcome recorded in this test, key = NCC1CCC(C(=O)O)CC1 (configuration not stated)
Marked response: inactive

Exam item: # outcome recorded in this test, key = CCS(=O)CCSP(=O)(OC)OC (configuration not stated)
Marked response: inactive

***
Exam item: # outcome recorded in this test, key = `S=c1nc[nH]c2nc[nH]c12`
Marked response: inactive

Exam item: # outcome recorded in this test, key = `COc1ccc2c(c1OC)C(=O)O[C@@H]2[C@H]1c2cc3c(cc2CCN1C)OCO3`
Marked response: inactive

Exam item: # outcome recorded in this test, key = c1cncc(C2CCCCN2)c1 (configuration not stated)
Marked response: inactive

Exam item: # outcome recorded in this test, key = `COc1ccc2c(c1)OCc1c-2oc2cc(OC)ccc12`
Marked response: inactive

Exam item: # outcome recorded in this test, key = CCN(CC)CCCC(C)Nc1c2ccc(Cl)cc2nc2ccc(OC)cc12 (configuration not stated)
Marked response: active
